# Test system: DLD1
# test: cell viability (CellTiter-Glo) relative to plate median (fraction of plate median); higher = more viable cells
# condition_description: 5 µM; treatment time 24 h; reporter: 7TFP
Exercise: for every item that follows, state its recorded cell viability.

-- ask Sample CC(=O)OCC(=O)[C@@]1(O)[C@H](C)C[C@H]2[C@@H]3CCC4=CC(=O)C=C[C@]4(C)[C@@]3(F)[C@@H](O)C[C@@]21C — what was its cell viability?
-- reply 1.06

-- ask Entry CC1(C)C(=O)CC[C@@]2(C)C1C[C@@H](O)[C@@]1(C)C3=CC(=O)O[C@@H](c4ccoc4)[C@]3(C)CCC21 (some centres undefined) has what cell viability?
-- reply 0.96

-- ask Reported cell viability, molecule COc1c2occc2c(OC)c2c(=O)cc(C)oc12 : ____
-- reply 0.99

-- ask Value lookup for cell viability; key = COc1ccc(-c2oc3cc(OC)c(OC)c(OC)c3c(=O)c2OC)cc1
-- reply 0.978

-- ask Entry COc1ccc([C@H]2Oc3cc(OC)cc(OC)c3C[C@H]2O)cc1 has what cell viability?
-- reply 1

-- ask Bench note: what cell viability did O=C1c2c(O)cccc2C([C@@H]2O[C@H](CO)[C@@H](O)[C@H](O)[C@H]2O)c2cc(CO)cc(O)c21 (some centres undefined) show?
-- reply 1.05

-- ask Reported cell viability for CCOC(=O)c1ccc(O)cc1 : what is it?
-- reply 0.925

-- ask I have this molecule here, CC(=O)O[C@H]1CC[C@@]2(C)[C@@H](CC[C@@H]3[C@@H]2CC(=O)[C@]2(C)[C@@H]4[C@H](C[C@@H]32)O[C@]2(CC[C@@H](C)CO2)[C@H]4C)C1 , and I need its recorded cell viability.
-- reply 0.907

-- ask Look at this molecule and give its reported cell viability. NCC(O)CC(=O)O (centres undefined)
-- reply 1.03

====

# Test system: SW480
# test: TCF/Wnt firefly luciferase reporter signal relative to plate median (fraction of plate median); higher = higher Wnt reporter signal
# condition_description: 5 µM; treatment time 24 h; reporter: 7TFP
Binary call on TCF/Wnt firefly luciferase reporter signal: T from 1 upward, F beneath that.

-- ask In plain terms: is recorded TCF/Wnt firefly luciferase reporter signal at least 1 for COC(=O)c1cc(O)c(=O)c2c(O)c(O)ccc2c1 ?
-- reply F

-- ask Quick check: does Clc1ccc(C(Cn2ccnc2)OCc2ccsc2Cl)c(Cl)c1 (stereo not given) have TCF/Wnt firefly luciferase reporter signal greater than or equal to 1?
-- reply F

-- ask Decide: is the reported value of TCF/Wnt firefly luciferase reporter signal for CC(=O)O[C@@H]1c2c(ccc3ccc(=O)oc23)OC(C)(C)[C@@H]1OC(=O)CC(C)C equal to or greater than 1?
-- reply F

-- ask hey, is TCF/Wnt firefly luciferase reporter signal for this one >= 1? O=c1cc(-c2ccccc2)oc2cc(O)cc(O)c12
-- reply T

-- ask Item NCCCC[C@H](N[C@@H](CCc1ccccc1)C(=O)O)C(=O)N1CCC[C@H]1C(=O)O with TCF/Wnt firefly luciferase reporter signal of 1 or above?
-- reply F

-- ask # bool: TCF/Wnt firefly luciferase reporter signal of C#CCN(C)Cc1ccccc1 >= 1
-- reply T

-- ask Decide: is the reported value of TCF/Wnt firefly luciferase reporter signal for COc1ccc2c(c1)OCC(Cc1ccc(OC)c(OC)c1)C2=O (stereo not given) equal to or greater than 1?
-- reply T

-- ask Has O=C1NCCN(C(=O)[C@H](Cc2ccccc2)NC(=O)[C@@H]2CCCN2)C1=O [Prolyl-phenylalanyl-diketopiperazine] a recorded TCF/Wnt firefly luciferase reporter signal greater than or equal to 1?
-- reply F

-- ask Would you say CCCCNS(=O)(=O)c1ccccc1 [N-butylbenzenesulphonamide (AB2)] shows TCF/Wnt firefly luciferase reporter signal at minimum 1?
-- reply F

====

# Tested on: DLD1
# test: cell viability (CellTiter-Glo) relative to plate median (fraction of plate median); higher = more viable cells
# condition_description: 5 µM; treatment time 24 h; reporter: 7TFP
measurement_name: cell viability

-- ask GET /values?readout=cell viability&item= CCOC(=O)[N-]c1c[n+](N2CCOCC2)no1
-- reply 1.06

-- ask Entry CC(=O)N[C@@H](CS)C(=O)O has what cell viability?
-- reply 0.994

-- ask Would you mind telling me what cell viability value was observed for O=C(O)CCC(=O)c1ccc(-c2ccccc2)cc1 ?
-- reply 1.04

-- ask Which cell viability value belongs to Cc1cc(-c2ccccc2)nnc1NCCN1CCOCC1 ?
-- reply 1

-- ask Could you tell me which cell viability is on file for Cc1cccc(N(C)C(=S)Oc2ccc3ccccc3c2)c1 ?
-- reply 1.07

-- ask Give its cell viability value. Item: Cc1cc(O)c(C=O)c2c1C(=O)Oc1c(C)c(O)c3c(c1O2)C(O)OC3=O (stereo unspecified)
-- reply 0.975

====

# System: DLD1
# test: cell viability (CellTiter-Glo) relative to plate median (fraction of plate median); higher = more viable cells
# condition_description: 10 µM; treatment time 24 h; reporter: 7TFP
For each entry below, report its cell viability value.
Hey, just send me the number, nothing else.

-- ask Param item = CN(C)C1CCN(C(=O)c2ccc(NC(=O)Nc3ccc(-c4nc(N5CCOCC5)nc(N5CCOCC5)n4)cc3)cc2)CC1 ; retrieve measured cell viability.
-- reply 1.1

-- ask State the recorded cell viability for this entry: CCOc1cc2ncc(C#N)c(Nc3ccc(OCc4ccccn4)c(Cl)c3)c2cc1NC(=O)/C=C/CN(C)C
-- reply 0.817

-- ask Would you kindly share the measured cell viability for COc1ccc(COc2cc3oc(=O)c4cc(C(C)O)ccc4c3cc2OC)cc1 (centres undefined) ?
-- reply 1.08

-- ask For the molecule shown here, O=c1sn(-c2cccc3ccccc23)c(=O)n1Cc1ccccc1 , give the reported cell viability.
-- reply 1.03

====

# System: SW480
# test: TCF/Wnt firefly luciferase reporter signal relative to plate median (fraction of plate median); higher = higher Wnt reporter signal
# condition_description: 10 µM; treatment time 24 h; reporter: 7TFP
measurement_name: TCF/Wnt firefly luciferase reporter signal
Quick one: just the number, no unit, thanks!

-- ask Quick check: TCF/Wnt firefly luciferase reporter signal on SW480, item Cc1[nH]c(/C=C2\C(=O)Nc3ccc(S(=O)(=O)Cc4c(Cl)cccc4Cl)cc32)c(C)c1C(=O)N1CCC[C@@H]1CN1CCCC1 ?
-- reply 1.21

-- ask What reported TCF/Wnt firefly luciferase reporter signal corresponds to Cc1c(NC(=O)OC[C@@H]2COCCN2)cn2ncnc(Nc3ccc4c(cnn4Cc4cccc(F)c4)c3)c12 on SW480?
-- reply 1.3

-- ask Write down the reported TCF/Wnt firefly luciferase reporter signal of CCS(=O)(=O)c1cccc(-c2cc(C(=O)NC3CCN(C)CC3)c(C)c3[nH]c4ncc(C)cc4c23)c1 , test system: SW480.
-- reply 0.834

-- ask Kindly state the measured TCF/Wnt firefly luciferase reporter signal obtained for CN(C[C@@H]1COCCO1)S(=O)(=O)Nc1ccc2ccc3ncc(-c4cnn(C)c4)cc3c(=O)c2c1 with SW480.
-- reply 1.02

-- ask Please provide the recorded TCF/Wnt firefly luciferase reporter signal for COc1cc(OC)c(/C=C/S(=O)(=O)Cc2ccc(OC)c(NCC(=O)O)c2)c(OC)c1 , tested on SW480.
-- reply 0.694

====

# Tested on: HCT116
# test: TCF/Wnt firefly luciferase reporter signal relative to plate median (fraction of plate median); higher = higher Wnt reporter signal
# condition_description: 10 µM; treatment time 24 h; reporter: TCF4/Wnt
Record form. Attribute: TCF/Wnt firefly luciferase reporter signal. Fill in for each entry.
# answer = number (no unit)

-- ask I'd like to know its TCF/Wnt firefly luciferase reporter signal. The compound in question is S=C(NCc1ccc2c(c1)OCO2)N1CCN(c2ncnc3c2oc2ccccc23)CC1 [Amuvatinib (MP-470)]
-- reply 1.13

-- ask Fill in the blank: the reported TCF/Wnt firefly luciferase reporter signal of COc1cccc2cc(-c3nc([C@H]4CC[C@H](C(=O)O)CC4)n4ncnc(N)c34)[nH]c12 is ____.
-- reply 0.611

-- ask // query TCF/Wnt firefly luciferase reporter signal value for entry O=C1NC(=O)/C(=C/c2ccc3c(c2)OC(F)(F)O3)S1
-- reply 1.18

-- ask Please look up its TCF/Wnt firefly luciferase reporter signal: O=C(O)[C@]1(Cc2cccc(Nc3nccs3)n2)CC[C@@H](Oc2cccc(Cl)c2F)CC1
-- reply 0.568

-- ask I would be grateful if you could share the reported TCF/Wnt firefly luciferase reporter signal for COc1cc(CCc2cc(NC(=O)c3ccc(N4CC(C)NC(C)C4)cc3)n[nH]2)cc(OC)c1 (stereo not given) .
-- reply 0.502

-- ask Would you kindly share the measured TCF/Wnt firefly luciferase reporter signal for O=C1NC(=O)C(c2ccccc2[N+](=O)[O-])=C1Nc1ccc(O)c(Cl)c1 ?
-- reply 2.56

-- ask Could you tell me which TCF/Wnt firefly luciferase reporter signal is on file for Oc1ccc(-c2nc(-c3ccc(F)cc3)c(-c3ccncc3)[nH]2)cc1 ?
-- reply 1.05

-- ask # get_value(readout='TCF/Wnt firefly luciferase reporter signal', item= CC[C@H](Nc1ncnc2[nH]cnc12)c1nc2cccc(F)c2c(=O)n1-c1ccccc1 )
-- reply 0.777

-- ask Entry Fc1cc(-c2cccc3ncc(-c4cnn(C5CCNCC5)c4)nc23)cc(F)c1CN1CCOCC1 has what TCF/Wnt firefly luciferase reporter signal?
-- reply 0.967

-- ask Would you mind telling me what TCF/Wnt firefly luciferase reporter signal value was observed for CO[C@H]1C[C@@H]2CC[C@@H](C)[C@@](O)(O2)C(=O)C(=O)N2CCCC[C@H]2C(=O)O[C@H]([C@H](C)C[C@@H]2CC[C@@H](OC(=O)C(C)(CO)CO)[C@H](OC)C2)CC(=O)[C@H](C)/C=C(\C)[C@@H](O)[C@@H](OC)C(=O)[C@H](C)C[C@H](C)/C=C/C=C/C=C/1C [Temsirolimus (Torisel)] ?
-- reply 1.17

-- ask I am curious: what TCF/Wnt firefly luciferase reporter signal value has been reported for Cc1ccc(F)c(NC(=O)Nc2ccc(-c3cccc4[nH]nc(N)c34)cc2)c1 [Linifanib (ABT-869)] ?
-- reply 0.906

-- ask What measured TCF/Wnt firefly luciferase reporter signal goes with Oc1cc(O)cc(/C=C/c2ccc(O)c(O)c2)c1 [Piceatannol] ?
-- reply 1.46

-- ask Record request: TCF/Wnt firefly luciferase reporter signal value, item CO[C@H]1C[C@@H]2CC[C@@H](C)[C@@](O)(O2)C(=O)C(=O)N2CCCC[C@H]2C(=O)O[C@H]([C@H](C)C[C@@H]2CC[C@@H](OCCO)[C@H](OC)C2)CC(=O)[C@H](C)/C=C(\C)[C@@H](O)[C@@H](OC)C(=O)[C@H](C)C[C@H](C)/C=C/C=C/C=C/1C [Everolimus (RAD001)]
-- reply 0.951

-- ask Dear colleague, I am looking for the recorded TCF/Wnt firefly luciferase reporter signal of the following compound: COc1cc2nccc(Oc3ccc(NC(=O)Nc4cc(C)on4)c(Cl)c3)c2cc1OC [Tivozanib (AV-951)]
-- reply 1.15

-- ask Report TCF/Wnt firefly luciferase reporter signal for C#Cc1cccc(Nc2ncnc3cc(OCCOC)c(OCCO)cc23)c1 please.
-- reply 0.804

src = the supplement of paper PMC6522484
